Molecular target: KRasG12C (M1-K169, biotinylated on the N-terminus) (Homo sapiens (Human), UniProt P01116, G12C)
Assay: Covalent competition assay: scintillation proximity assay (SPA) quantifying covalent modification of KRASG12C
Conditions: competition with radiolabeled covalent probe (Compound B/Compound A), 2 hours incubation, 10 nM KRasG12C
In this section, each of the compounds is paired with its reported IC50.
Quick note: give the figure in nM, leave out the unit.

Known results for compounds:
{"COMPOUND": "C=CC(=O)N1CC2(CC(n3nc(N4CC[C@@H](CN5CCN(C6COC6)CC5)CC4(C)C)c(-c4c(Cl)c(F)cc5[nH]ncc45)c3C)C2)C1 (single isomer, unassigned) [Example 245b]", "IC50, nM": 14}
{"COMPOUND": "C=CC(=O)N1CC2(CC(n3nc(N4CC[C@@H](CN5CCN6C(=O)N(C)CC6C5)CC4(C)C)c(-c4c(Cl)c(Cl)cc5[nH]ncc45)c3C)C2)C1 (single isomer, unassigned) [Example 264b]", "IC50, nM": 33}
{"COMPOUND": "C=CC(=O)N1CC2(CC(n3nc(N4CCN(C[C@@H]5COCCO5)C[C@]4(C)CC)c(-c4c(Cl)c(C)cc5[nH]ncc45)c3C)C2)C1C (single isomer, unassigned) [Example 199b]", "IC50, nM": 37}
{"COMPOUND": "C=CC(=O)N1CC2(CC(n3nc(N4CCN(C5COC5)C[C@]4(C)COC)c(-c4c(Cl)c(C)cc5[nH]ncc45)c3C)C2)C1 (single isomer, unassigned) [Example 147b]", "IC50, nM": 923}
{"COMPOUND": "C=CC(=O)N1CC2(CC(n3nc(N4CCN(C(C)=O)CC4)c(-c4c(Cl)ccc5[nH]ncc45)c3C)C2)C1C (single isomer, unassigned) [Example 195a]", "IC50, nM": 10400}
{"COMPOUND": "C=CC(=O)N1CC2(CC(n3nc(N4CC[C@@H](CN5CCN(C)[C@H](CO)C5)CC4(C)C)c(-c4c(Cl)c(Cl)cc5[nH]ncc45)c3C)C2)C1 (single isomer, unassigned) [Example 270a]", "IC50, nM": 2400}
{"COMPOUND": "C=CC(=O)N1CC2(CC(n3nc(N4CCN(C5COCCOC5)C[C@]4(C)CC)c(-c4c(Cl)c(C)cc5[nH]ncc45)c3C)C2)C1 (single isomer, unassigned) [Example 159a]", "IC50, nM": 715}
{"COMPOUND": "C=CC(=O)N1CC2(CC(n3nc(N4CCc5cnn(C)c5C4)c(-c4c(Cl)c(C)cc5[nH]ncc45)c3C)C2)C1 (single isomer, unassigned) [Example 14b]", "IC50, nM": 364}
{"COMPOUND": "C=CC(=O)N1CC2(CC(n3nc(N4CCC5(CN(C)CCO5)CC4(C)C)c(-c4c(Cl)c(C)cc5[nH]ncc45)c3C)C2)C1 (single isomer, unassigned) [Example 208a]", "IC50, nM": 64}

Then this compound:
// lookup IC50 for C=CC(=O)N1CC2(CC(n3nc(N4CCN(C5CCOCC5)C[C@]4(C)COC)c(-c4c(Cl)c(C)cc5[nH]ncc45)c3C)C2)C1 (single isomer, unassigned) [Example 149a]
766

----------
In this section, each of the compounds is paired with its reported pIC50.
Target: KRasG12C (M1-K169, biotinylated on the N-terminus) (Homo sapiens (Human), UniProt P01116, G12C)
Assay: Covalent competition assay: scintillation proximity assay (SPA) quantifying covalent modification of KRASG12C
Conditions: competition with radiolabeled covalent probe (Compound B/Compound A), 2 hours incubation, 10 nM KRasG12C
Experimental: Cells were harvested by centrifugation and frozen at −80° C. until further processing. […] The cells were lysed by 4 passages through an Avestin Emulsiflex at about 20000 psi and insoluble debris removed by centrifugation and filtered through a 0.45 µm Durapore membrane (Millipore). […] Eluted protein fractions were analyzed by Novex NuPage 4-12% PAGE. […] Positive fractions were determined by PAGE (Novex NuPage 4-12% BisTris) analysis. […]
Scale for pIC50: -log10 of concentration given in mol/L; no unit attached.

Known results for compounds:
{"COMPOUND": "C=CC(=O)N1CC2(CC(n3nc(N4CCC(CN5CCN(C)C(=O)C5)CC4(C)C)c(-c4c(Cl)c(Cl)cc5[nH]ncc45)c3C)C2)C1 (single isomer, unassigned) [Example 239a]", "DATA_VALUE": 5.80}
{"COMPOUND": "C=CC(=O)N1CC2(CC(n3nc(N4CC[C@@H](CN(C5COC5)C5COC5)CC4(C)C)c(-c4c(Cl)c(Cl)cc5[nH]ncc45)c3C)C2)C1 (single isomer, unassigned) [Example 282b]", "DATA_VALUE": 8.15}

Then this compound:
// lookup pIC50 for C=CC(=O)N1CC2(CC(n3nc(N4CC[C@@H](CN5CCN(C6COC6)CC5)CC4(C)C)c(-c4c(Cl)c(Cl)cc5[nH]ncc45)c3C)C2)C1 (single isomer, unassigned) [Example 243a]
5.42
